Cytotox. IC50 values, listed per item
- Tested on: L6 rat skeletal myoblasts
- EXPERIMENT DESCRIPTION: Cytotoxicity against mammalian control cells
- Type: cell-based
- SETTINGS: L6 cell line; mean of n = 2 (fluctuation range) or * n = 3 (SD)
- Method: After isolation, all alkaloids were tested in vitro for antiplasmodial and antitrypanosomal activity against Plasmodium falciparum (Pf) and Trypanosoma brucei rhodesiense (Tbr). Furthermore, to assess their selectivity against the parasites, cytotoxicity against L6 rat skeletal myoblasts, as mammalian control cells, was tested (Table 4). […]

# COMPOUND, MEASURED TARGET, Cytotox. IC50 / µg/mL
rows = [
    ("CC(C1C(OC(=O)c2ccccc2)CC2(C)C3C=CC4C(C)(CO)C(N(C)C)CCC45CC35CCC12C)N(C)C (centres unmarked) [Compound 6, Cyclomicrophyllidine-A]", "L6 rat skeletal myoblasts", 9.3),
    ("C[C@@H]([C@H]1CC[C@H]2[C@@H]3CC=C4C[C@@H](O)CC[C@]4(C)[C@H]3CC[C@]12C)N(C)C [Compound 19, Irehine]", "L6 rat skeletal myoblasts", 13.4),
    ("C[C@@H]([C@H]1[C@H](O)C[C@@]2(C)[C@@H]3CC[C@H]4C(C)(C)C(=O)C=C[C@@]45C[C@@]35CC[C@]12C)N(C)C [Compound 12, Nb-dimethylcycloxobuxoviricine]", "L6 rat skeletal myoblasts", 19),
    ("C=C1[C@@H](N(C)C)CC[C@]23C[C@]24CC[C@]2(C)[C@@H](C(C)=O)[C@H](O)C[C@@]2(C)[C@@H]4CC[C@@H]13 [Compound 18, Cyclomicrobuxine]", "L6 rat skeletal myoblasts", 26.8),
    ("CC(=O)[C@H]1[C@H](O)C[C@@]2(C)[C@@H]3CC[C@@H]4C(=CC3=CC[C@]12C)CC[C@H](N(C)C)C4(C)C [Compound 20, 16-α-hydroxybuxaminone]", "L6 rat skeletal myoblasts", 45),
]

* * *

- Test system: Trypanosoma brucei rhodesiense (Tbr) (bloodstream trypomastigotes, STIB 900 strain)
- EXPERIMENT DESCRIPTION: In vitro antitrypanosomal activity
- Format: cell-based
- SETTINGS: Trypanosoma brucei; STIB 900 strain; read-out: Tbr IC50 (in parentheses) (converted)
PROPERTY: IC50 (µM)

# MOLECULE, MEASURED TARGET, OUTPUT UNIT, MEASUREMENT
measured = [
    ("C[C@@H]([C@H]1[C@H](O)C[C@@]2(C)[C@@H]3CC[C@@H]4[C@@]5(CCC(=O)[C@@]4(C)CO)C[C@@]35CC[C@]12C)N(C)C [Compound 11, 29-hydroxy-cyclomikuranine-L]", "Trypanosoma brucei rhodesiense (Tbr) (bloodstream trypomastigotes, STIB 900 strain)", "µM", 7),
    ("C/C=C(\\C)C(=O)O[C@@H]1C[C@@]2(C)[C@@H]3C=C[C@H]4[C@](C)(CO)[C@@H](N(C)C)CC[C@@]45C[C@@]35CC[C@]2(C)[C@H]1[C@H](C)N(C)C", "Trypanosoma brucei rhodesiense (Tbr) (bloodstream trypomastigotes, STIB 900 strain)", "µM", 2.9),
    ("C/C=C(\\C)C(=O)O[C@@H]1C[C@@]2(C)[C@@H]3C=C[C@H]4[C@](C)(CO)[C@@H](N(C)C)CC[C@@]45C[C@@]35CC[C@]2(C)[C@H]1[C@H](C)NC", "Trypanosoma brucei rhodesiense (Tbr) (bloodstream trypomastigotes, STIB 900 strain)", "µM", 9),
    ("CN[C@H]1CC=C2CC3=CC[C@@]4(C)[C@@](C)(CC[C@]4(O)[C@H](C)O)[C@@H]3CC[C@H]2C1(C)C [Compound 25, 17,20-dihydroxybuxadine-M]", "Trypanosoma brucei rhodesiense (Tbr) (bloodstream trypomastigotes, STIB 900 strain)", "µM", 17.3),
]
